MIC data for Salmonella typhimurium KCTC 1926 follow.
Could you give the number and then its unit, please?

Inquiry: Enter recorded MIC with Salmonella typhimurium KCTC 1926 for CC(C)C[C@H](NC(=O)[C@H](Cc1ccccc1)NC(=O)[C@H](CCCN=C(N)N)NC(=O)[C@H](CCCCN)NC(=O)[C@H](Cc1c[nH]c2ccccc12)NC(=O)[C@H](CCCN=C(N)N)NC(=O)[C@H](CCC(N)=O)NC(=O)[C@@H](NC(=O)[C@H](Cc1c[nH]c2ccccc12)NC(=O)[C@H](CCCN=C(N)N)NC(=O)[C@H](CCCCN)NC(=O)[C@@H](N)Cc1c[nH]c2ccccc12)C(C)C)C(=O)N[C@@H](CCCN=C(N)N)C(N)=O here.
Reply text: 2 µM

Then this compound:
Inquiry: Enter recorded MIC with Salmonella typhimurium KCTC 1926 for CC[C@H](C)[C@H](N)C(=O)N[C@@H](CC(C)C)C(=O)N1CCC[C@H]1C(=O)N[C@@H](Cc1c[nH]c2ccccc12)C(=O)N[C@@H](CCCCN)C(=O)N[C@@H](Cc1c[nH]c2ccccc12)C(=O)N1CCC[C@H]1C(=O)N[C@@H](Cc1c[nH]c2ccccc12)C(=O)N[C@@H](Cc1c[nH]c2ccccc12)C(=O)N[C@@H](CCCCN)C(=O)N[C@@H](Cc1c[nH]c2ccccc12)C(=O)N[C@@H](CCCN=C(N)N)C(=O)N[C@@H](CCCN=C(N)N)C(N)=O here.
Reply text: 5.16 µM

* * *

MIC data for Salmonella enterica subsp. enterica serovar Typhimurium C77-31 follow.

Inquiry: Enter recorded MIC with Salmonella enterica subsp. enterica serovar Typhimurium C77-31 for CC[C@H](C)[C@H](NC(=O)[C@H](CCCCN)NC(=O)[C@H](CCCCN)NC(=O)[C@H](CC(C)C)NC(=O)[C@H](CCCN=C(N)N)NC(=O)[C@H](CCCCN)NC(=O)[C@H](CCCN=C(N)N)NC(=O)[C@H](Cc1c[nH]c2ccccc12)NC(=O)[C@H](CCCCN)NC(=O)[C@H](CCCCN)NC(=O)[C@H](CCCN=C(N)N)NC(=O)[C@H](CC(C)C)NC(=O)[C@H](CCCN=C(N)N)NC(=O)[C@H](CCCN=C(N)N)NC(=O)[C@H](Cc1ccccc1)NC(=O)[C@@H](N)CCCN=C(N)N)C(N)=O here.
Reply text: ≥ 128 µM

Then this molecule:
Inquiry: Enter recorded MIC with Salmonella enterica subsp. enterica serovar Typhimurium C77-31 for NCCCC[C@H](NC(=O)CNC(=O)[C@H](CC(N)=O)NC(=O)[C@H](CCC(=O)O)NC(=O)[C@H](Cc1c[nH]c2ccccc12)NC(=O)[C@H](CCCCN)NC(=O)[C@H](Cc1c[nH]c2ccccc12)NC(=O)[C@H](CCCCN)NC(=O)[C@@H](N)Cc1c[nH]c2ccccc12)C(=O)N[C@@H](Cc1c[nH]c2ccccc12)C(=O)N[C@@H](CCCCN)C(=O)N[C@@H](Cc1c[nH]c2ccccc12)C(=O)N[C@@H](CCCCN)C(=O)N[C@@H](Cc1c[nH]c2ccccc12)C(=O)O here.
Reply text: ≥ 32 µM

* * *

Tested on: Escherichia coli ATCC 11219
observed.property: MIC (µM)
Express the result in µM but write the number alone.

Example entries begin here.
Inquiry: Enter recorded MIC with Escherichia coli ATCC 11219 for CC[C@H](C)[C@H](NC(=O)CNC(=O)[C@@H](N)Cc1c[nH]c2ccccc12)C(=O)N[C@@H](Cc1cnc[nH]1)C(=O)N[C@@H](CCCN=C(N)N)C(=O)N[C@H](C(=O)N[C@@H](CC(C)C)C(=O)N[C@@H](CCCCN)C(=O)N[C@@H](Cc1ccc(O)cc1)C(=O)NCC(=O)N[C@@H](CCCCN)C(=O)N1CCC[C@H]1C(=O)N[C@@H](CO)C(=O)O)[C@@H](C)CC [WGIHRILKYGKPS] here.
Reply text: 8

Inquiry: Enter recorded MIC with Escherichia coli ATCC 11219 for CC[C@H](C)[C@H](NC(=O)CN)C(=O)N[C@@H](Cc1cnc[nH]1)C(=O)N[C@@H](CC(=O)O)C(=O)N[C@@H](C)C(=O)N[C@@H](CC(C)C)C(=O)N[C@@H](CCCCN)C(=O)N[C@@H](Cc1ccc(O)cc1)C(=O)NCC(=O)N[C@@H](CCCCN)C(=O)N1CCC[C@H]1C(=O)N[C@@H](CO)C(N)=O [GIHDALKYGKPS] here.
Reply text: 20

Then this compound:
Inquiry: Enter recorded MIC with Escherichia coli ATCC 11219 for CC[C@H](C)[C@H](NC(=O)CN)C(=O)N[C@@H](Cc1cnc[nH]1)C(=O)N[C@@H](CC(=O)O)C(=O)N[C@H](C(=O)N[C@@H](CC(C)C)C(=O)N[C@@H](CCCCN)C(=O)N[C@@H](Cc1ccc(O)cc1)C(=O)NCC(=O)N[C@@H](CCCCN)C(=O)N[C@@H](CCCCN)C(=O)N[C@@H](CO)C(N)=O)[C@@H](C)CC [GIHDILKYGKKS] here.
Reply text: 10
